system: SN12C; test: NCI tumour cell line growth inhibition, 48 h
Calls of active or inactive are those of the source. Rule as the data show it: active = GI50 up to about 1.1 µM and inactive = higher.
measurement type: GI50

Input line: Look up GI50 for this compound: "COC(=O)NNc1c([N+](=O)[O-])cnn(-c2ccccc2)c1=O"
Output line: 1.99 µM (inactive)

Input line: Look up GI50 for this compound: "CCN(CC(=O)O)C(=O)c1cccnc1"
Output line: > 100 µM (inactive)

Input line: Look up GI50 for this compound: Cc1ccc(NC(=O)C(=O)C2NC(=S)NC2=O)c([N+](=O)[O-])c1 (stereo not given)
Output line: > 100 µM (inactive)

Input line: Look up GI50 for this compound: "CCOC(=O)NNC(=O)NCCNC(=O)NNC(=O)OCC"
Output line: > 100 µM (inactive)

Input line: Look up GI50 for this compound: "CCC(=O)NCC1(c2c[nH]c3ccccc23)SCCS1"
Output line: > 100 µM (inactive)

***
Input line: Look up GI50 for this compound: Cc1cn(C2CC(N(O)Cc3ccccc3)C(CO)O2)c(=O)[nH]c1=O (stereo not given)
Output line: > 100 µM (inactive)

Input line: Look up GI50 for this compound: "Cc1cccc(C)c1NC(=O)CCc1nnc2s/c(=C\c3ccc(N(C)C)cc3)c(=O)n12"
Output line: > 100 µM (inactive)

Input line: Look up GI50 for this compound: "CN1CCC2(CC1)/C(=N/C1CCCCC1)NC(=S)N2c1ccccc1"
Output line: > 100 µM (inactive)

Input line: Look up GI50 for this compound: "C/C=C/c1c(O)c(=O)c2c(OC)cc(OC)c3c4c(OC)cc(OC)c5c(=O)c(O)c(/C=C/C)c(c1c23)c54"
Output line: 16.5 µM (inactive)

Input line: Look up GI50 for this compound: "CCOC(=O)Nc1ccc(S(=O)(=O)I)cc1.CCOC(=O)Nc1ccc(S(=O)(=O)I)cc1.CN(C=O)C1=C(N(C)C=O)C(N(C)C=O)=C(N(C)C=O)C(=O)C1=O"
Output line: > 100 µM (inactive)
